Experiment: chemical genetic growth profiling, strain panel (AID 1159580);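 note: tested at 20 µM; growth read once vehicle control cultures reached saturation at 30 °C; 1 = growth at the plate median or of vehicle wells; lower values mean less growth of the strain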
Conditions: S. cerevisiae deletion strains, growth OD, locus YDL134C, strain PPH21, stronger effect = lower value
About 2,000 (36%) of roughly 5,500 compounds were called active. Not shown: some 18% with an inconclusive outcome. Some of the results follow.
measurement-type: normalized growth
Form rule: numeric answer, no unit written next to it.

Some solved cases for reference:
INSERT INTO assay_data (compound, measurement_type, experimental_result) VALUES
  ('CC(=O)O[C@@H]1C2CC[C@@H]3C1(C[C@@H](O)[C@@]1(O)[C@@H](C[C@H](O)C1(C)C)[C@]3(C)O)C[C@@]2(C)O (some centres undefined)', 'normalized growth', 1.05),
  ('O=C1c2ccccc2C(=O)c2ccccc21', 'normalized growth', 0.995),
  ('COc1ccc(NS(=O)(=O)c2ccc(N)cc2)nn1', 'normalized growth', 1.01),
  ('CCOC(=O)c1ccc(N2CCOCC2)c(N=Cc2cc(Cl)ccc2O)c1', 'normalized growth', 0.781),
  ('OC[C@H]1O[C@@H](Oc2ccc(O)cc2)[C@H](O)[C@@H](O)[C@@H]1O', 'normalized growth', 1.02),
  ('O=C(NNC(=S)NC1CC2C=CC1C2)c1cccnc1 (centres undefined)', 'normalized growth', 0.992);

Given CN1C(=O)CC[C@H]1c1cccnc1 , state its recorded normalized growth.
1

Given COc1cc2ncnc(Nc3cccc(Cl)c3)c2cc1OC , state its recorded normalized growth.
0.877

Query: normalized growth; subject: CC(C)C1CCC(C(=O)N[C@@H](Cc2ccccc2)C(=O)O)CC1 (some centres undefined)
1.01

// provenance: PubChem BioAssay AID1159580
